Biological target: human MMP-14 (human, UniProt P50281 112-541, limits assumed)
Test: cell-based or functional assay
Property Label: IC50 of MMP-14 inhibition (MMP-14 at 2 pM), IgG (nM)

# Binder, Recorded Measurement
records = [
    ("M0033-H07 IgG (antibody, V domains shown, IgG of the Fab) VH: EVQLLESGGGLVQPGGSLRLSCAASGFTFSVYGMVWVRQAPGKGLEWVSVISSSGGSTWYADSVKGRFTISRDNSKNTLYLQMNSLRAEDTALYYCARPFSRRYGVFDYWGQGTLVTVSS VL: DIQMTQSPSSLSASVGDRVTITCRASQGIRNFLAWYQQKPGKVPKLLVFGASALQSGVPSRFSGSGSGTDFTLTISGLQPEDVATYYCQKYNGVPLTFGGGTKVEIK", 5.1),
    ("M0037-C09 IgG (antibody, V domains shown, IgG of the Fab; also called M037-C09) VH: EVQLLESGGGLVQPGGSLRLSCAASGFTFSHYEMFWVRQAPGKGLEWVSSISPSGGQTHYADSVKGRFTISRDNSKNTLYLQMNSLRAEDTAVYYCATDRTYYDFWSGYGPLWYWGQGTLVTVSS VL: DIQMTQSPLSLPVTLGESASVSCRSSQSLLHENGHNYLDWYLQKPGQSPQLLIYLGSNRASGVPDRFSGSGSGTDFTLKISRVEAEDVGVYYCMQSLKTPPTFGPGTKVEIK", 4.2),
]

Every entry's value here was drawn from patent US7745587.
